- TEST PARAMETERS: Ebola virus entry assay, green fluorescence channel; further: 0% is about no effect
Measured potencies and affinities stand elsewhere.
Listed here are molecules together with their documented efficacy.
Record the value in %, omitting the unit from your answer.

# example entries with known answers
MOLECULE: CCC(=O)O[C@]1(C(=O)CCl)[C@@H](C)C[C@H]2[C@@H]3CCC4=CC(=O)C=C[C@]4(C)[C@@]3(F)[C@@H](O)C[C@@]21C
RECORDED METRIC: efficacy
VALUE REPORTED: 88.5
//
MOLECULE: Cc1ncc2n1-c1ccc(Cl)cc1C(c1ccccc1F)=NC2
RECORDED METRIC: efficacy
VALUE REPORTED: -12
//
MOLECULE: COc1cc(C[C@@H](C)N)c(OC)cc1C
RECORDED METRIC: efficacy
VALUE REPORTED: 32.9

Moving on to another molecule below.
Briefly, efficacy measured for Cc1c(Cn2ccnc2)c2ccccc2n1CCC(=O)O : 14
